System: Human plasma
Test: Human plasma anticoagulation, prothrombin time (PT)
Format: biochemical
Details: concentration required to double the PT, linear extrapolation
Measured attribute: Human Plasma Anticoagulation 2× Clotting time PT

> print(dat)
                                    compound  observed.result
 1  CCS(=O)(=O)N[C@H](Cc1ccccc1)C(=O)N1CCC[C@H]1C(=O)NCc1cccc(NC(=N)N)c1 [Example 36]   > 91,000 ng/mL
 2  CCS(=O)(=O)N[C@H](CC1CCCCC1)C(=O)N1CCC[C@H]1C(=O)NCc1ccc(C(=N)N)cc1.Cl [Example 80]        130 ng/mL
 3  Nc1cc(CCNC(=O)[C@@H]2CCCN2C(=O)[C@@H](CC2CCCCC2)NCC(=O)O)ccn1 [Example 76]        560 ng/mL
 4  N=C(N)C1=CNC(CNC(=O)[C@@H]2CCCN2C(=O)[C@@H](CC2CCCCC2)NCC(=O)O)CC1 (stereo partly drawn) [Example 68]        190 ng/mL
 5  CCC(CC)C(=O)N[C@@H](CCS(C)(=O)=O)C(=O)N1CCC[C@H]1C(=O)NCc1ccc(C(=N)N)cc1 [Example 91]      3,500 ng/mL
 6  N=C(N)c1ccc(CNC(=O)[C@@H]2CCCN2C(=O)[C@@H](CC2CCCCC2)NCC(=O)O)nc1 [Example 66]        270 ng/mL
 7  N=C(N)c1cc(F)c(CNC(=O)[C@@H]2CCCN2C(=O)[C@@H](CC2CCCCC2)NCC(=O)O)c(F)c1 [Example 72]        160 ng/mL
 8  N=C(N)N1CCC(CCNC(=O)[C@@H]2CCCN2C(=O)[C@@H](CC2CCCCC2)NCC(=O)O)CC1 [Example 57]        340 ng/mL
 9  N=C(N)C1CCC(CNC(=O)[C@@H]2CCCN2C(=O)[C@@H](CC2CCCCC2)NCC(=O)O)NC1 (stereo partly drawn) [Example 67]      1,300 ng/mL
10  N=C(N)c1ccc(CNC(=O)[C@@H]2CCCN2C(=O)[C@H](NCC(=O)O)C2CCCCC2)cc1 [Example 86]        180 ng/mL
11  O=C(O)CN[C@H](CC1CCCCC1)C(=O)N1CCC[C@H]1C(=O)NCC1CCNCC1 [Example 53]     34,500 ng/mL
12  N=C(N)c1ccc(CCCNC(=O)[C@@H]2CCCN2C(=O)[C@@H]2NCC[C@@H]3CCCC[C@@H]32)cc1 [Example 32]     47,800 ng/mL
13  CC(C)CC[C@H]1C[C@@H](C(=O)NCc2ccc(C(=N)N)cc2)N(C(=O)[C@@H](CC2CCCCC2)NCC(=O)O)C1 (relative stereo) [Example 50]        420 ng/mL
14  CCS(=O)(=O)N[C@H](CC1CCCCC1)C(=O)N1CCC[C@H]1C(=O)NCc1ccnc(N)c1 [Example 83]      1,300 ng/mL
15  CCC(CC)C(=O)N[C@@H](CCC(=O)O)C(=O)N1CCC[C@H]1C(=O)NCc1ccc(C(=N)N)cc1 [Example 90]     14,600 ng/mL
